# credit: ChEMBL document CHEMBL4392832

targetSystem: Metabotropic glutamate receptor 7 (Rattus norvegicus)
testDescription: Negative allosteric modulation of rat mGlu7 receptor expressed in HEK cells co-expressing Galpha15 assessed as minimum L-AP4 response by measuring reduction in calcium mobilization incubated for 142 secs prior to glutamate addition for 120 secs followed by L-AP4 addition and measured after 40 secs by Fluo-4 AM dye based fluorescence assay relative to L-AP4 alone
Format: functional, cell-based
Design: scale not given: the % may be the effect or the level left
readoutLabel: Activity (%)

Solved cases below.
{"moleculeSmiles": "COc1ccc(-c2nnc(-c3cc(OC(F)(F)F)ccc3-c3ccnn3C)o2)cc1OC", "targetSystem": "Metabotropic glutamate receptor 7 (Rattus norvegicus)", "Activity [%]": 20.6}
{"moleculeSmiles": "COc1cc(-c2nnc(-c3cc(OC(F)(F)F)ccc3-n3cncn3)o2)ccn1", "targetSystem": "Metabotropic glutamate receptor 7 (Rattus norvegicus)", "Activity [%]": 68.9}

[P] COc1ccc(-c2nnc(-c3cc(OC(F)(F)F)ccc3-n3ccnc3)o2)cc1OC
[Q] COc1ccc(-c2nnc(-c3cc(OC(F)(F)F)ccc3N3CCCCC3)o2)cc1OC
Please indicate which item has the smaller measured Activity: P versus Q Please indicate the selected item by its label.
P
(P: 6.3%, Q: 65.4%)
